- assay_overview: Growth inhibition of human Caki1 cells assessed as cell growth at 10^-5 M incubated for 48 hrs by sulforhodamine B assay
- Format: functional
- recorded_conditions: CAKI-1, 48 h, read-out: Activity
measurement_name: growth at 10 µM (%)

# smiles_representation, value_units, val
rows = [
    ("Clc1ccc(-c2nc(Nc3ccc(-c4nc5ccccc5[nH]4)cc3)nc(N3CCOCC3)n2)cc1", "%", -99),
    ("c1ccc2[nH]c(-c3ccc(Nc4nc(N5CCCCC5)nc(N5CCOCC5)n4)cc3)nc2c1", "%", -55),
    ("c1ccc(-c2nc(Nc3ccc(-c4nc5ccccc5[nH]4)cc3)nc(N3CCOCC3)n2)cc1", "%", -100),
    ("Fc1ccc(-c2nc(Nc3ccc(-c4nc5ccccc5[nH]4)cc3)nc(N3CCOCC3)n2)cc1", "%", -37),
]

###

- assay_overview: Growth inhibition of human Caki1 cells assessed as cell growth at 10 uM incubated for 48 hrs by sulforhodamine B assay
- Type: functional
- recorded_conditions: CAKI-1, 48 h, read-out: Activity
Documented growth at 10 µM across a set of compounds
measurement_name: growth at 10 µM

# smiles_representation, measurement_name, val
records = [
    ("c1ccc2[nH]c(-c3ccc(Nc4nc(N5CCCCC5)nc(N5CCOCC5)n4)cc3)nc2c1", "growth at 10 µM", "-46.9%"),
    ("Clc1ccc(-c2nc(Nc3ccc(-c4nc5ccccc5[nH]4)cc3)nc(N3CCOCC3)n2)cc1", "growth at 10 µM", "-93.6%"),
    ("c1ccc(-c2nc(Nc3ccc(-c4nc5ccccc5[nH]4)cc3)nc(N3CCOCC3)n2)cc1", "growth at 10 µM", "-89.4%"),
    ("Fc1ccc(-c2nc(Nc3ccc(-c4nc5ccccc5[nH]4)cc3)nc(N3CCOCC3)n2)cc1", "growth at 10 µM", "-56.6%"),
]

###

Documented GI50 across a set of compounds
- System: ACHN
- assay_overview: Growth inhibition of human ACHN cells incubated for 48 hrs by sulforhodamine B assay
- Format: functional
- recorded_conditions: read-out: GI50
measurement_name: GI50 (µM)

# smiles_representation, measurement_name, val
rows = [
    ("c1ccc2[nH]c(-c3ccc(Nc4nc(N5CCCCC5)nc(N5CCOCC5)n4)cc3)nc2c1", "GI50", 3.14),
    ("Fc1ccc(-c2nc(Nc3ccc(-c4nc5ccccc5[nH]4)cc3)nc(N3CCOCC3)n2)cc1", "GI50", 2.55),
    ("c1ccc(-c2nc(Nc3ccc(-c4nc5ccccc5[nH]4)cc3)nc(N3CCOCC3)n2)cc1", "GI50", 1.25),
    ("Clc1ccc(-c2nc(Nc3ccc(-c4nc5ccccc5[nH]4)cc3)nc(N3CCOCC3)n2)cc1", "GI50", 1.05),
]

###

Documented GI50 across a set of compounds
- assay_overview: Growth inhibition of human PC3 cells incubated for 48 hrs by sulforhodamine B assay
- Type: functional
- recorded_conditions: PC-3, 48 h, read-out: GI50

# smiles_representation, GI50 [nM]
measured = [
    ("c1ccc(-c2nc(Nc3ccc(-c4nc5ccccc5[nH]4)cc3)nc(N3CCOCC3)n2)cc1", 1800),
    ("Fc1ccc(-c2nc(Nc3ccc(-c4nc5ccccc5[nH]4)cc3)nc(N3CCOCC3)n2)cc1", 2390),
    ("Clc1ccc(-c2nc(Nc3ccc(-c4nc5ccccc5[nH]4)cc3)nc(N3CCOCC3)n2)cc1", 376),
    ("c1ccc2[nH]c(-c3ccc(Nc4nc(N5CCCCC5)nc(N5CCOCC5)n4)cc3)nc2c1", 3050),
]

Origin of the recorded values: ChEMBL document CHEMBL3808334
